biological target: UniProt P22303
Sequence (P22303 32-617 isoform P22303-2 limits assumed): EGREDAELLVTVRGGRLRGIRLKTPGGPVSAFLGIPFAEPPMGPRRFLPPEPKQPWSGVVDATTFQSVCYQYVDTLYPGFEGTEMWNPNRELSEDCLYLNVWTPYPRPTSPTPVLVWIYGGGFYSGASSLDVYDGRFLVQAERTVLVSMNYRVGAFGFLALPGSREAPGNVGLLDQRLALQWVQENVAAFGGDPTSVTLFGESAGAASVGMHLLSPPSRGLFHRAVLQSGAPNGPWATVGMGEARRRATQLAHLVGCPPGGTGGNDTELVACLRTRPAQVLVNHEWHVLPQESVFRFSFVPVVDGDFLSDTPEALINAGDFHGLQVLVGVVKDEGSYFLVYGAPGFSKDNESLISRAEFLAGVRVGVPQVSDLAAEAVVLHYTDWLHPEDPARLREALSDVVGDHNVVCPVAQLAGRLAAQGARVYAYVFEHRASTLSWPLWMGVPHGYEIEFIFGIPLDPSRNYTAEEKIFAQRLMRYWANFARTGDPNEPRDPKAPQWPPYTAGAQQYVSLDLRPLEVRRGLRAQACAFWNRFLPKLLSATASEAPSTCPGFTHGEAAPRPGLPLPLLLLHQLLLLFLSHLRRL
quantity-measured: IC50 (µM)

[[record]]
compound = "COc1ccc(C(=O)O)c(C(O)CCCCCCCC(=O)CC(C)O)c1 (stereo not shown)"
test_value = 20

